Listed below: viability, T/C values for each entry.
Tested on: 323965-272-R-J2-PDC complex spheroid growth, % test/control
Test: Anticancer human tumor 323965-272-R-J2-PDC patient-derived pancreatic carcinoma cell line growth inhibition [Asc]
Settings: second compound 0.0316 µM; first compound 0.316 µM; active compounds read low
Unit % implied. Number only.

Recorded viability, T/C, per entry:
>>> reported("CNC(C)C(=O)NC1CN(S(=O)(=O)c2cccc(S(=O)(=O)N3CCC4CCC(C(=O)NC(c5ccccc5)c5ccccc5)N4C(=O)C(NC(=O)C(C)NC)C3)c2)CCC2CCC(C(=O)NC(c3ccccc3)c3ccccc3)N2C1=O (stereo unspecified) + Cc1c(S(C)(=O)=O)c(-c2cc(F)cc(N3CCN(c4ccc(NS(=O)(=O)c5ccc(NC(CCN6CCC(C(=O)OCCCP(=O)(O)O)CC6)CSc6ccccc6)c(S(=O)(=O)C(F)(F)F)c5)cc4)CC3)c2)c(-c2ccc(Cl)cc2)n1C(C)C")
99.3
>>> reported("COc1c(OCCCN2CCOCC2)ccc2c3n(c(=NC(=O)c4cnc(N)nc4)nc12)CCN3 + Cc1c(S(C)(=O)=O)c(-c2cc(F)cc(N3CCN(c4ccc(NS(=O)(=O)c5ccc(NC(CCN6CCC(C(=O)OCCCP(=O)(O)O)CC6)CSc6ccccc6)c(S(=O)(=O)C(F)(F)F)c5)cc4)CC3)c2)c(-c2ccc(Cl)cc2)n1C(C)C")
37.9
>>> reported("C#Cc1c(F)ccc2cc(O)cc(-c3ncc4c(N5CC6CCC(C5)N6)nc(OCC56CCCN5CC(F)C6)nc4c3F)c12 (stereo unspecified) + CNC(C)C(=O)NC1CN(S(=O)(=O)c2cccc(S(=O)(=O)N3CCC4CCC(C(=O)NC(c5ccccc5)c5ccccc5)N4C(=O)C(NC(=O)C(C)NC)C3)c2)CCC2CCC(C(=O)NC(c3ccccc3)c3ccccc3)N2C1=O")
106

Specify viability, T/C for O=C(c1cc(Cc2n[nH]c(=O)c3ccccc23)ccc1F)N1CCN(C(=O)C2CC2)CC1 + Cc1c(S(C)(=O)=O)c(-c2cc(F)cc(N3CCN(c4ccc(NS(=O)(=O)c5ccc(NC(CCN6CCC(C(=O)OCCCP(=O)(O)O)CC6)CSc6ccccc6)c(S(=O)(=O)C(F)(F)F)c5)cc4)CC3)c2)c(-c2ccc(Cl)cc2)n1C(C)C and stop.
95.7

Specify viability, T/C for C=CC(=O)N1CCN(c2nc(=O)n(-c3c(C)ccnc3C(C)C)c3nc(-c4c(O)cccc4F)c(F)cc23)C(C)C1 (stereo unspecified) + CNC(C)C(=O)NC1CN(S(=O)(=O)c2cccc(S(=O)(=O)N3CCC4CCC(C(=O)NC(c5ccccc5)c5ccccc5)N4C(=O)C(NC(=O)C(C)NC)C3)c2)CCC2CCC(C(=O)NC(c3ccccc3)c3ccccc3)N2C1=O and stop.
62.4

Specify viability, T/C for C=C(F)C(=O)N1CCN(c2nc(OCC3CCCN3C)nc3c2CCN(c2cccc4cccc(Cl)c24)C3)CC1CC#N (stereo unspecified) + Cc1c(S(C)(=O)=O)c(-c2cc(F)cc(N3CCN(c4ccc(NS(=O)(=O)c5ccc(NC(CCN6CCC(C(=O)OCCCP(=O)(O)O)CC6)CSc6ccccc6)c(S(=O)(=O)C(F)(F)F)c5)cc4)CC3)c2)c(-c2ccc(Cl)cc2)n1C(C)C and stop.
59.3

* * *

Test system: 323965-272-R-J2-PDC complex spheroid growth, % test/control
Test: Anticancer human tumor 323965-272-R-J2-PDC cell line growth inhibition [Asc];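 further: compound exposure lasted 7 days starting three days after spheroid seeding; 100% = DMSO vehicle control wells with viability set relative to vehicle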
Details: second compound 0.1 µM; first compound 1 µM; active compounds read low
Listed below: viability, T/C values for each entry.
Unit % implied. Number only.

>>> reported("O=C(c1cc(Cc2n[nH]c(=O)c3ccccc23)ccc1F)N1CCN(C(=O)C2CC2)CC1 + CNC(C)C(=O)NC1CN(S(=O)(=O)c2cccc(S(=O)(=O)N3CCC4CCC(C(=O)NC(c5ccccc5)c5ccccc5)N4C(=O)C(NC(=O)C(C)NC)C3)c2)CCC2CCC(C(=O)NC(c3ccccc3)c3ccccc3)N2C1=O")
99.3

# lookup: 323965-272-R-J2-PDC complex spheroid growth, % test/control viability, T/C, key = CNC(C)C(=O)NC1CN(S(=O)(=O)c2cccc(S(=O)(=O)N3CCC4CCC(C(=O)NC(c5ccccc5)c5ccccc5)N4C(=O)C(NC(=O)C(C)NC)C3)c2)CCC2CCC(C(=O)NC(c3ccccc3)c3ccccc3)N2C1=O (configuration not stated) + Cc1c(S(C)(=O)=O)c(-c2cc(F)cc(N3CCN(c4ccc(NS(=O)(=O)c5ccc(NC(CCN6CCC(C(=O)OCCCP(=O)(O)O)CC6)CSc6ccccc6)c(S(=O)(=O)C(F)(F)F)c5)cc4)CC3)c2)c(-c2ccc(Cl)cc2)n1C(C)C
54.1

* * *

Tested on: 323965-272-R-J2-PDC complex spheroid growth, % test/control
Assay: Anticancer human tumor 323965-272-R-J2-PDC cell line growth inhibition [Asc];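 further: compound exposure lasted 7 days starting three days after spheroid seeding; 100% = DMSO vehicle control wells with viability set relative to vehicle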
Settings: second compound 1 µM; first compound 0.316 µM; active compounds read low
Listed below: viability, T/C values for each entry.

Recorded viability, T/C, per entry:
>>> reported("CNC(C)C(=O)NC1CN(S(=O)(=O)c2cccc(S(=O)(=O)N3CCC4CCC(C(=O)NC(c5ccccc5)c5ccccc5)N4C(=O)C(NC(=O)C(C)NC)C3)c2)CCC2CCC(C(=O)NC(c3ccccc3)c3ccccc3)N2C1=O (stereo unspecified) + Cc1c(S(C)(=O)=O)c(-c2cc(F)cc(N3CCN(c4ccc(NS(=O)(=O)c5ccc(NC(CCN6CCC(C(=O)OCCCP(=O)(O)O)CC6)CSc6ccccc6)c(S(=O)(=O)C(F)(F)F)c5)cc4)CC3)c2)c(-c2ccc(Cl)cc2)n1C(C)C")
"83%"
>>> reported("O=C(c1cc(Cc2n[nH]c(=O)c3ccccc23)ccc1F)N1CCN(C(=O)C2CC2)CC1 + Cc1c(S(C)(=O)=O)c(-c2cc(F)cc(N3CCN(c4ccc(NS(=O)(=O)c5ccc(NC(CCN6CCC(C(=O)OCCCP(=O)(O)O)CC6)CSc6ccccc6)c(S(=O)(=O)C(F)(F)F)c5)cc4)CC3)c2)c(-c2ccc(Cl)cc2)n1C(C)C")
"83.8%"
>>> reported("O=C(c1cc(Cc2n[nH]c(=O)c3ccccc23)ccc1F)N1CCN(C(=O)C2CC2)CC1 + CNC(C)C(=O)NC1CN(S(=O)(=O)c2cccc(S(=O)(=O)N3CCC4CCC(C(=O)NC(c5ccccc5)c5ccccc5)N4C(=O)C(NC(=O)C(C)NC)C3)c2)CCC2CCC(C(=O)NC(c3ccccc3)c3ccccc3)N2C1=O")
"83.3%"
>>> reported("C#Cc1c(F)ccc2cc(O)cc(-c3ncc4c(N5CC6CCC(C5)N6)nc(OCC56CCCN5CC(F)C6)nc4c3F)c12 (stereo unspecified) + Cc1c(S(C)(=O)=O)c(-c2cc(F)cc(N3CCN(c4ccc(NS(=O)(=O)c5ccc(NC(CCN6CCC(C(=O)OCCCP(=O)(O)O)CC6)CSc6ccccc6)c(S(=O)(=O)C(F)(F)F)c5)cc4)CC3)c2)c(-c2ccc(Cl)cc2)n1C(C)C")
"88.4%"
>>> reported("C#Cc1c(F)ccc2cc(O)cc(-c3ncc4c(N5CC6CCC(C5)N6)nc(OCC56CCCN5CC(F)C6)nc4c3F)c12 (stereo unspecified) + CNC(C)C(=O)NC1CN(S(=O)(=O)c2cccc(S(=O)(=O)N3CCC4CCC(C(=O)NC(c5ccccc5)c5ccccc5)N4C(=O)C(NC(=O)C(C)NC)C3)c2)CCC2CCC(C(=O)NC(c3ccccc3)c3ccccc3)N2C1=O")
"92.9%"

# lookup: 323965-272-R-J2-PDC complex spheroid growth, % test/control viability, T/C, key = C=C(F)C(=O)N1CCN(c2nc(OCC3CCCN3C)nc3c2CCN(c2cccc4cccc(Cl)c24)C3)CC1CC#N (stereo unspecified) + Cc1c(S(C)(=O)=O)c(-c2cc(F)cc(N3CCN(c4ccc(NS(=O)(=O)c5ccc(NC(CCN6CCC(C(=O)OCCCP(=O)(O)O)CC6)CSc6ccccc6)c(S(=O)(=O)C(F)(F)F)c5)cc4)CC3)c2)c(-c2ccc(Cl)cc2)n1C(C)C
51.3%

* * *

Listed below: viability, T/C values for each entry.
System: 323965-272-R-J2-PDC complex spheroid growth, % test/control
Experiment: Anticancer human tumor 323965-272-R-J2-PDC cell line growth inhibition [Asc];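 further: compound exposure lasted 7 days starting three days after spheroid seeding; 100% = DMSO vehicle control wells with viability set relative to vehicle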
Conditions: second compound 0.1 µM; first compound 3.16 µM; active compounds read low
Unit % implied. Number only.

Specify viability, T/C for C#Cc1c(F)ccc2cc(O)cc(-c3ncc4c(N5CC6CCC(C5)N6)nc(OCC56CCCN5CC(F)C6)nc4c3F)c12 (stereo not given) + CNC(C)C(=O)NC1CN(S(=O)(=O)c2cccc(S(=O)(=O)N3CCC4CCC(C(=O)NC(c5ccccc5)c5ccccc5)N4C(=O)C(NC(=O)C(C)NC)C3)c2)CCC2CCC(C(=O)NC(c3ccccc3)c3ccccc3)N2C1=O and stop.
62.3

* * *

System: 323965-272-R-J2-PDC complex spheroid growth, % test/control
Test: Anticancer human tumor 323965-272-R-J2-PDC cell line growth inhibition [Asc];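 further: compound exposure lasted 7 days starting three days after spheroid seeding; 100% = DMSO vehicle control wells with viability set relative to vehicle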
Details: second compound 0.0316 µM; first compound 0.00949 µM; active compounds read low
VALUE TYPE: viability, T/C (%)
Unit % implied. Number only.

>>> reported("NC(=O)C(=Cn1cnc(-c2cc(C(F)(F)F)cc(C(F)(F)F)c2)n1)c1cncnc1 + CNC(C)C(=O)NC1CN(S(=O)(=O)c2cccc(S(=O)(=O)N3CCC4CCC(C(=O)NC(c5ccccc5)c5ccccc5)N4C(=O)C(NC(=O)C(C)NC)C3)c2)CCC2CCC(C(=O)NC(c3ccccc3)c3ccccc3)N2C1=O")
108

Specify viability, T/C for Cc1nc(N2CCC3(CC2)COC(C)C3N)c(CO)nc1Sc1ccnc(N)c1Cl (stereo not drawn) + CNC(C)C(=O)NC1CN(S(=O)(=O)c2cccc(S(=O)(=O)N3CCC4CCC(C(=O)NC(c5ccccc5)c5ccccc5)N4C(=O)C(NC(=O)C(C)NC)C3)c2)CCC2CCC(C(=O)NC(c3ccccc3)c3ccccc3)N2C1=O and stop.
110

Specify viability, T/C for CCN1C(C(=O)NC23CCC(C(=O)O)(CC2)CC3)C(c2cccc(Cl)c2F)C2(C(=O)Nc3cc(Cl)ccc32)C12CCCCC2 (stereo not drawn) + CNC(C)C(=O)NC1CN(S(=O)(=O)c2cccc(S(=O)(=O)N3CCC4CCC(C(=O)NC(c5ccccc5)c5ccccc5)N4C(=O)C(NC(=O)C(C)NC)C3)c2)CCC2CCC(C(=O)NC(c3ccccc3)c3ccccc3)N2C1=O and stop.
99.9
